# System Under Test: ABL (Homo sapiens)
# Test Summary: ABL tyrosine kinase inhibition, off-chip incubation mobility-shift kinase assay (Caliper LABCHIP 3000)
# Measurement Conditions: at 3.0E−11 (concentration unit not given); average of replicate wells
Reported Endpoint: ABL AVG % Activity at Specific Concentration (%)

compound=COCCOCCOCCOCC(=O)N[C@H](C(=O)OCCN1CCN(c2cc(Nc3ncc(C(=O)Nc4c(C)cccc4Cl)s3)nc(C)n2)CC1)C(C)C reported_result=95
compound=COCCOCCOCCNC(=O)OCCN1CCN(c2cc(Nc3ncc(C(=O)Nc4c(C)cccc4Cl)s3)nc(C)n2)CC1 reported_result=95
compound=COCCOCCOCCOCCOCCOCCOCCOCCOCCNC(=O)OCCN1CCN(c2cc(Nc3ncc(C(=O)Nc4c(C)cccc4Cl)s3)nc(C)n2)CC1 reported_result=92
compound=COCCOCCOCCOCCOCCOCCOCCNC(=O)OCCN1CCN(c2cc(Nc3ncc(C(=O)Nc4c(C)cccc4Cl)s3)nc(C)n2)CC1 reported_result=91
compound="COCCOCCOCCOCC(=O)NC(CC(C)C)C(=O)OCCN1CCN(c2cc(Nc3ncc(C(=O)Nc4c(C)cccc4Cl)s3)nc(C)n2)CC1 (stereo not shown)" reported_result=97
compound=COCCOCCOCCOCC(=O)OCCN1CCN(c2cc(Nc3ncc(C(=O)Nc4c(C)cccc4Cl)s3)nc(C)n2)CC1 reported_result=92
compound=COCCOCCOCCOCCOCCNC(=O)OCCN1CCN(c2cc(Nc3ncc(C(=O)Nc4c(C)cccc4Cl)s3)nc(C)n2)CC1 reported_result=94

====

# System Under Test: ABL (Homo sapiens, UniProt P00519)
# Sequence (P00519 whole entry): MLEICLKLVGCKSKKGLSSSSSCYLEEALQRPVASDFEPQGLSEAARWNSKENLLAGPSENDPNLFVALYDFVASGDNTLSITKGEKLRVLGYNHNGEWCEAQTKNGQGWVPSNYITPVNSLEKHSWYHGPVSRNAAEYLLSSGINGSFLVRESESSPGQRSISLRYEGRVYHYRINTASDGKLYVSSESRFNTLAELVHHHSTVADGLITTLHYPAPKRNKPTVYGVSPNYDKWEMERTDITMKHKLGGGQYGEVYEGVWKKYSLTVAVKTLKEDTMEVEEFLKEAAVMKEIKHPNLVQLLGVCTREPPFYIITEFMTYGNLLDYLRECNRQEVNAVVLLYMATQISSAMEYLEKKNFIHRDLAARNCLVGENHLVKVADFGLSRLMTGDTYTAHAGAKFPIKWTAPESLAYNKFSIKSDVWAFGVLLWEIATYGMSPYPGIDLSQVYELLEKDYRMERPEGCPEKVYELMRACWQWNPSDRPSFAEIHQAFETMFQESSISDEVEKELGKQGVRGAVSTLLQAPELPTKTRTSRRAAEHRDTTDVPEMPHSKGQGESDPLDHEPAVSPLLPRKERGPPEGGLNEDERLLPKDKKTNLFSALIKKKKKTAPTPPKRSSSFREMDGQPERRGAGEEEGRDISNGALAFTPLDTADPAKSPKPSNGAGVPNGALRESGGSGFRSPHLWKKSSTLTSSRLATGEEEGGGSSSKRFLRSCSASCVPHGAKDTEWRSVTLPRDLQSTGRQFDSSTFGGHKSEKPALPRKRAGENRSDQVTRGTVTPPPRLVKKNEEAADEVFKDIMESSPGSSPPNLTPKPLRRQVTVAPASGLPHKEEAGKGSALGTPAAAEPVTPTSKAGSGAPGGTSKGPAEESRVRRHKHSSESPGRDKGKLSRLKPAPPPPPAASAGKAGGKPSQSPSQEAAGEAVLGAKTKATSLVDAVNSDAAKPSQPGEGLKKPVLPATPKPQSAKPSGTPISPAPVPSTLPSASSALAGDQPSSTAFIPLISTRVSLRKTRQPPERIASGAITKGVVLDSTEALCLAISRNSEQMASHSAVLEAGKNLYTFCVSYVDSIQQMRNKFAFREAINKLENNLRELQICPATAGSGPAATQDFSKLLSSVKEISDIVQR
# Test Summary: ABL tyrosine kinase inhibition, off-chip incubation mobility-shift kinase assay (Caliper LABCHIP 3000)
# Measurement Conditions: at 1.0E−11 (concentration unit not given); average of replicate wells
Reported Endpoint: ABL AVG % Activity at Specific Concentration (%)

compound=COCCOCCOCCOCC(=O)OCCN1CCN(c2cc(Nc3ncc(C(=O)Nc4c(C)cccc4Cl)s3)nc(C)n2)CC1 reported_result=98
compound=COCCOCCOCCOCC(=O)N[C@H](C(=O)OCCN1CCN(c2cc(Nc3ncc(C(=O)Nc4c(C)cccc4Cl)s3)nc(C)n2)CC1)C(C)C reported_result=98
compound=COCCOCCOCCNC(=O)OCCN1CCN(c2cc(Nc3ncc(C(=O)Nc4c(C)cccc4Cl)s3)nc(C)n2)CC1 reported_result=99
compound=COCCOCCOCCOCCOCCNC(=O)OCCN1CCN(c2cc(Nc3ncc(C(=O)Nc4c(C)cccc4Cl)s3)nc(C)n2)CC1 reported_result=97
compound="COCCOCCOCCOCC(=O)NC(CC(C)C)C(=O)OCCN1CCN(c2cc(Nc3ncc(C(=O)Nc4c(C)cccc4Cl)s3)nc(C)n2)CC1 (stereo not shown)" reported_result=99
compound=COCCOCCOCCOCCOCCOCCOCCOCCOCCNC(=O)OCCN1CCN(c2cc(Nc3ncc(C(=O)Nc4c(C)cccc4Cl)s3)nc(C)n2)CC1 reported_result=97
compound=COCCOCCOCCOCCOCCOCCOCCNC(=O)OCCN1CCN(c2cc(Nc3ncc(C(=O)Nc4c(C)cccc4Cl)s3)nc(C)n2)CC1 reported_result=98

====

# System Under Test: ABL (Homo sapiens)
# Test Summary: ABL tyrosine kinase inhibition, off-chip incubation mobility-shift kinase assay (Caliper LABCHIP 3000)
# Measurement Conditions: at 3.0E−09 (concentration unit not given); average of replicate wells
Reported Endpoint: ABL AVG % Activity at Specific Concentration (%)

Some solved entries appear below for comparison.
compound_structure=COCCOCCOCCOCCOCCOCCOCCNC(=O)OCCN1CCN(c2cc(Nc3ncc(C(=O)Nc4c(C)cccc4Cl)s3)nc(C)n2)CC1 system_under_test="ABL (Homo sapiens)" reported_result=−1
compound_structure=COCCOCCOCCOCCOCCNC(=O)OCCN1CCN(c2cc(Nc3ncc(C(=O)Nc4c(C)cccc4Cl)s3)nc(C)n2)CC1 system_under_test="ABL (Homo sapiens)" reported_result=−1
compound_structure=COCCOCCOCCNC(=O)OCCN1CCN(c2cc(Nc3ncc(C(=O)Nc4c(C)cccc4Cl)s3)nc(C)n2)CC1 system_under_test="ABL (Homo sapiens)" reported_result=0

(1) COCCOCCOCCOCC(=O)N[C@H](C(=O)OCCN1CCN(c2cc(Nc3ncc(C(=O)Nc4c(C)cccc4Cl)s3)nc(C)n2)CC1)C(C)C
(2) COCCOCCOCCOCCOCCOCCOCCOCCOCCNC(=O)OCCN1CCN(c2cc(Nc3ncc(C(=O)Nc4c(C)cccc4Cl)s3)nc(C)n2)CC1
Lab note: record which item had the higher ABL AVG % Activity at Specific Concentration, 1 or 2 . When you have decided, please share the label of that item.
1
(1: 0%, 2: −1%)

// data source = patent US9084828B2
